- measuredTarget: VEGFR2 (Homo sapiens, UniProt P35968)
- Sequence (P35968 790-1356 limits assumed): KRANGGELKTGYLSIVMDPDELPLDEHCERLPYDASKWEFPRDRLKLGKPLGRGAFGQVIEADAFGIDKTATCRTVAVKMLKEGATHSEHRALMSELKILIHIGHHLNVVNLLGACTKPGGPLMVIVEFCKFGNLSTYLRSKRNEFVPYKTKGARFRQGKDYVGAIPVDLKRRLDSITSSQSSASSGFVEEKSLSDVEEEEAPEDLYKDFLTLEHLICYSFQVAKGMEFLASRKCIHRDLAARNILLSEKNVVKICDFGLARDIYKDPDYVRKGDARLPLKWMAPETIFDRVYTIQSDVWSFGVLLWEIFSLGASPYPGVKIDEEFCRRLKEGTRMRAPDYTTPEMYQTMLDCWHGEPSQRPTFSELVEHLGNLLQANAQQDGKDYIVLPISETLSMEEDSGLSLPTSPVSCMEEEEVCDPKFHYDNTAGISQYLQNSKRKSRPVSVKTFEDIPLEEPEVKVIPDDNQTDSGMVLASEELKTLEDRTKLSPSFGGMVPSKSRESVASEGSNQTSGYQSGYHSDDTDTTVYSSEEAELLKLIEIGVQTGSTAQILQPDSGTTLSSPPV
- assayComment: Kinase inhibition, Mobility Shift Assay/IMAP, VEGFR2
- Format: biochemical
- Set-up: purchased Carna 08-191
recordedEndpoint: pIC50
Note: pIC50 values are expressed as the negative base-10 logarithm of concentration in M.

Worked examples follow.
NC(=O)c1c(OCc2ccc3c(c2)OCC3)nsc1NC(=O)NCCC1CCN(C2CC2)CC1 :: 7.90
CC(C)(C)[Si](C)(C)OCCCNC(=O)Nc1snc(OCc2cc(C(=O)NC3CC3)ccc2F)c1C(N)=O :: 7.79

Please look up its pIC50: `NC(=O)c1c(OCc2ccc3ccoc3c2)nsc1NC(=O)NCCCCN1CCCC1`
7.75
